All figures here come from ChEMBL document CHEMBL5046291.

biological target: DNA topoisomerase 2-alpha (Homo sapiens) (UniProt P11388); test: Inhibition of recombinant Top2 (unknown origin) assessed as inhibition of relaxation of supercoiled pBR322 plasmid DNA at 100 uM incubated for 15 mins by ethidium bromide staining based agarose gel electrophoresis analysis
Sequence (P11388 whole entry): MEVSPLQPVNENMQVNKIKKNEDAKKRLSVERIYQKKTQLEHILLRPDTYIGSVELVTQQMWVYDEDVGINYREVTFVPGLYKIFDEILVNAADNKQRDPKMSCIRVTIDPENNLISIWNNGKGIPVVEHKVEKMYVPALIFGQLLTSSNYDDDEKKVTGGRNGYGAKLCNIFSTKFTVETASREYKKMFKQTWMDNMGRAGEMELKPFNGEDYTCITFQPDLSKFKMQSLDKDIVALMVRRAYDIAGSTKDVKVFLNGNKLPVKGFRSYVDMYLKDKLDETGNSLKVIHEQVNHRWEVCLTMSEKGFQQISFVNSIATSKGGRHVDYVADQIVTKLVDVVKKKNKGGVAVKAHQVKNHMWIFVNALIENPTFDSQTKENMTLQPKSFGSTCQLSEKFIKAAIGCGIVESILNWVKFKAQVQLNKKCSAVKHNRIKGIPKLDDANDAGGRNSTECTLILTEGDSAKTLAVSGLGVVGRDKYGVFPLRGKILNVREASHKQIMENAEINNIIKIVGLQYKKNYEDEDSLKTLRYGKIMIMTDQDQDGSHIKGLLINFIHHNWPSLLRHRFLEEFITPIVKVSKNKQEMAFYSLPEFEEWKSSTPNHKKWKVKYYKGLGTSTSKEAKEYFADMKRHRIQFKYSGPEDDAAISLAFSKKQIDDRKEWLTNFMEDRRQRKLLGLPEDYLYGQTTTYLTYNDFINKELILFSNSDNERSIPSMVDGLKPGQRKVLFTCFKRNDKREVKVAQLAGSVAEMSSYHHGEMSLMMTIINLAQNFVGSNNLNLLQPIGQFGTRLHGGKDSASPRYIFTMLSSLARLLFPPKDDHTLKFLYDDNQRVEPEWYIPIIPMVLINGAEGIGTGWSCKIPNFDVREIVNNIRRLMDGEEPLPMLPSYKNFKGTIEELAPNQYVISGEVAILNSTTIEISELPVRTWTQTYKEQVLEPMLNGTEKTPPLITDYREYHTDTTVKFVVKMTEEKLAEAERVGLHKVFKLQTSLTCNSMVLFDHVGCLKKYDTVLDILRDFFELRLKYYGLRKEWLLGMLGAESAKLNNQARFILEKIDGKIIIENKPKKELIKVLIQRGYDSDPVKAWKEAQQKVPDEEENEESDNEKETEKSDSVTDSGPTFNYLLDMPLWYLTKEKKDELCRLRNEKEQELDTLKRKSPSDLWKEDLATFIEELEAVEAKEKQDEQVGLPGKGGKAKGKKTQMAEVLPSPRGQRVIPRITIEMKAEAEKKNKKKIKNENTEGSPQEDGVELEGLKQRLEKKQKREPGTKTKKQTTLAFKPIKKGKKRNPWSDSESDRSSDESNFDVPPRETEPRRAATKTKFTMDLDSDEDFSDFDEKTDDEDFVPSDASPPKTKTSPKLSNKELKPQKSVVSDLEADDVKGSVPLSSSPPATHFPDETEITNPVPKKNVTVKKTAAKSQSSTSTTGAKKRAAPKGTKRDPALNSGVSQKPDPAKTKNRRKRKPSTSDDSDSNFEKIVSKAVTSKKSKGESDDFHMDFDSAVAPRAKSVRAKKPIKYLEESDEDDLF
Active and inactive are the calls of the source. No cut-off for these calls is given here.
The reply should name one outcome from active, inactive

| compound | classAssignment |
| --- | --- |
| CN1c2ccc(F)cc2C(=O)N2CCc3c([nH]c4ccc(OCc5ccccc5C(=O)NO)cc34)C21 (configuration not stated) | active |
| CN1c2ccc(F)cc2C(=O)N2CCc3c([nH]c4ccc(OCCCCC(=O)NO)cc34)C21 (configuration not stated) | active |
| CN1c2ccc(F)cc2C(=O)N2CCc3c([nH]c4ccc(OCCCCCCC(=O)NO)cc34)C21 (configuration not stated) | active |
| CN1c2ccc(F)cc2C(=O)N2CCc3c([nH]c4ccc(OCCCC(=O)NO)cc34)C21 (configuration not stated) | active |

[ask] Would you mind telling me which call this test gave CN1c2ccc(F)cc2C(=O)N2CCc3c([nH]c4ccc(OCc5ccc(/C=C/C(=O)NO)cc5)cc34)C21 (configuration not stated) ?
[reply] active

[ask] Also need CN1c2ccc(F)cc2C(=O)N2CCc3c([nH]c4ccc(OCCCCCCC(=O)Nc5ccccc5N)cc34)C21 (configuration not stated) , thanks.
[reply] active

[ask] Also need CN1c2ccc(F)cc2C(=O)N2CCc3c([nH]c4ccc(OCCCCCC(=O)NO)cc34)C21 (configuration not stated) , thanks.
[reply] active

[ask] Also need CN1c2ccc(F)cc2C(=O)N2CCc3c([nH]c4ccc(OCc5cccc(C(=O)NO)c5)cc34)C21 (configuration not stated) , thanks.
[reply] active

[ask] Also need CN1c2ccc(F)cc2C(=O)N2CCc3c([nH]c4ccc(OCc5ccc(CC(=O)NO)cc5)cc34)C21 (configuration not stated) , thanks.
[reply] active

[ask] Also need CN1c2ccc(F)cc2C(=O)N2CCc3c([nH]c4ccc(OCc5ccc(/C=C/C(=O)Nc6ccccc6N)cc5)cc34)C21 (configuration not stated) , thanks.
[reply] active

[ask] Also need CN1c2ccc(F)cc2C(=O)N2CCc3c([nH]c4ccc(OCCCCCCCC(=O)NO)cc34)C21 (configuration not stated) , thanks.
[reply] inactive

[ask] Also need CN1c2ccc(F)cc2C(=O)N2CCc3c([nH]c4ccc(OCc5ccc(C(=O)NO)cc5)cc34)C21 (configuration not stated) , thanks.
[reply] active

* * *

molecular target: UniProt:O15379; experiment: Inhibition of recombinant His-tagged human HDAC3 expressed in baculovirus infected insect cells using Ac-Leu-Gly-Lys(Ac)-AMC as substrate preincubated for 5 mins followed by substrate addition and further incubated for 30 mins by fluorescence based microtiter plate reader assay
Sequence (O15379 whole entry): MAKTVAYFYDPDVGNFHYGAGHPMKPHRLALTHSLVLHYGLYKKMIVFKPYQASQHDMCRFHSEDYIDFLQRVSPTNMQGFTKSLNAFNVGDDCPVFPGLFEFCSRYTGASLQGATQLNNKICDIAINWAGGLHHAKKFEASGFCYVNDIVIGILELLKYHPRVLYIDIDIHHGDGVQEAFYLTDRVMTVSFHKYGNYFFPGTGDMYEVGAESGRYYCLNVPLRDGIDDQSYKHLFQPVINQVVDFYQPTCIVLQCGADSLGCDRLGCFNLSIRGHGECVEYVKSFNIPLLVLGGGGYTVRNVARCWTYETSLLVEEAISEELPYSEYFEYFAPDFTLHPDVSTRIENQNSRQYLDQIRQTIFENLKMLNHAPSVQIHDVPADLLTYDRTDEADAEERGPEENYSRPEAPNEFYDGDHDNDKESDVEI
pIC50 reference
// pIC50 here means minus log10 of the molar concentration (mol/L)

| compound | pIC50 |
| --- | --- |
| CN1c2ccc(F)cc2C(=O)N2CCc3c([nH]c4ccc(OCc5ccc(/C=C/C(=O)Nc6ccccc6N)cc5)cc34)C21 (configuration not stated) | 4.82 |

For the next question, use this compound.
[ask] Consider the compound shown here: CN1c2ccc(F)cc2C(=O)N2CCc3c([nH]c4ccc(OCc5ccc(/C=C/C(=O)NO)cc5)cc34)C21 (configuration not stated) What is its recorded pIC50?
[reply] 7.23
